- assay target: T1, EsCas13d, nuclease-dead (Eubacterium siraeum, UniProt B0MS50, R295A;H300A;R849A;H854A)
- T1 sequence: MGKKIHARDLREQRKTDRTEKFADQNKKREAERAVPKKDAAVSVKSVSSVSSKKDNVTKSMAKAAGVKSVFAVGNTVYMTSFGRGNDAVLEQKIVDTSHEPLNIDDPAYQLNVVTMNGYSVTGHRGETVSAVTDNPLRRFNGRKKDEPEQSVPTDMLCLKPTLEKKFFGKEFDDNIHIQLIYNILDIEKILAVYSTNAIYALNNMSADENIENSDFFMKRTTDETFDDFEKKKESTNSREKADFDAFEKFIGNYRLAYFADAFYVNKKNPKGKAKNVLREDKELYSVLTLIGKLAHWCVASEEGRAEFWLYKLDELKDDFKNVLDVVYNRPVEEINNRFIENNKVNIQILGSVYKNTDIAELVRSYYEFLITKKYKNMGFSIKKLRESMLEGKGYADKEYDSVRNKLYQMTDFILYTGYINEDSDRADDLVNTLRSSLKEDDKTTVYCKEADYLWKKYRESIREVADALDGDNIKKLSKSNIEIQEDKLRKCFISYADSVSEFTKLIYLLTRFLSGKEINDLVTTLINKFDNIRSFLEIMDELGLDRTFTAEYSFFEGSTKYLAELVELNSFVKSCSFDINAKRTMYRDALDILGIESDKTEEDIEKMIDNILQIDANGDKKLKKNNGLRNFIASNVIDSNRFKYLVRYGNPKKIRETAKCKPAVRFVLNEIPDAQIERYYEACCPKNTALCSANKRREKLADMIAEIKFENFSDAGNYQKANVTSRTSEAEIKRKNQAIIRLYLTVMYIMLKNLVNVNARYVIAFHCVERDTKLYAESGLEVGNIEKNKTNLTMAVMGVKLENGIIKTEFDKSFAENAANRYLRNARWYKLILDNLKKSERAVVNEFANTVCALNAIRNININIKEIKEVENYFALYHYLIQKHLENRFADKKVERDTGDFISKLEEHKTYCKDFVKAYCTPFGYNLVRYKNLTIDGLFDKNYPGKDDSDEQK
- method notes: crRNA (strand 1, pre-loaded); Mg2+; 40 mM Tris-HCl pH 7.5, 150 mM NaCl, 6 mM MgCl2, 1 mM DTT, 0.1% Tween-20, 0.2 mg/ml BSA; 25 C; 10 min per concentration, then washed
- measurement setup: tags: His6-TwinStrep-SUMO cleaved; N-terminal SNAP kept (SNAP-Surface 488); label: 3' end held by stalled T7 RNA polymerase
metric: Kd (nM)
Give bare numbers, in nM.

# annotated cases, reported Kd shown
# binder, data value
data = [
    ("target 2 MT 5'PFS UUG 3'PFS AGU (mixed) RNA 1: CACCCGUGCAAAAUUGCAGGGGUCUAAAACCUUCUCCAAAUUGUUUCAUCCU RNA 2: GGGAAUGGAUCCACAUCUACGAAUUCUUGAGGAUGAAACAAUUUGGAGAAGAGUAGAUCGGAAGAGCACACGU", 14.5),
    ("target 2 MT 5'PFS CUG 3'PFS CCU (mixed) RNA 1: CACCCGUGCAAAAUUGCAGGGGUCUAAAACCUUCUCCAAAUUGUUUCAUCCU RNA 2: GGGAAUGGAUCCACAUCUACGAAUUCCUGAGGAUGAAACAAUUUGGAGAAGCCUAGAUCGGAAGAGCACACGU", 57),
    ("target 1 C4A,C6G (mixed) RNA 1: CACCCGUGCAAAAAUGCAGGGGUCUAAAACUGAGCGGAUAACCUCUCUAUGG RNA 2: GGGAAUGGAUCCACAUCUACGAAUUCGUACCAUAGAGAGGUUAUCGGAUCACCGAGAUCGGAAGAGCACACGU", 5.4),
]

Shifting focus to the binder that follows.
// Kd lookup, binder = target 1 MT 5'PFS GGU 3'PFS CUA (mixed) RNA 1: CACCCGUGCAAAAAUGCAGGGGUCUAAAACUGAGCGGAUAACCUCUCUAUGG RNA 2: GGGAAUGGAUCCACAUCUACGAAUUCGGUCCAUAGAGAGGUUAUCCGCUCACUAAGAUCGGAAGAGCACACGU , result: 64.5
